experiment: Quantitative High-Throughput drug screen in 47 multiple myeloma cell lines against the NCATS MIPE library collection: KMS27_JCRB cell viability assay (AID 1918970); conditions: KMS27 myeloma cells, CellTiter-Glo ATP viability, 48 h; series mostly up to 45.8 µM; further: nearly all actives have a fitted effect of over 30% in size; further: potency means the concentration at half of the fitted maximal effect
Results filed as inconclusive are left out. The source made the active and inactive calls. The call rests on the fitted dose curve; in most records, active means well fitted cell-killing curve with a large enough effect; inconclusive means small, poorly fitted or top-dose-only effect, or effect the other way; inactive means no such curve, though single readings can be large or run the other way.
Observation Type: Potency

Recorded Potency, per entry:
{"columns": ["Molecule", "Test Value"],
 "data": [
  ["CCCc1nc2c(C)cc(-c3nc4ccccc4n3C)cc2n1Cc1ccc(-c2ccccc2C(=O)O)cc1", "4.18 µM (active)"],
  ["O=C(Nc1nc2ccccc2n1CCN1CCOCC1)c1cccc([N+](=O)[O-])c1", "7.43 µM (active)"],
  ["CC[C@@H](C)[C@H](NC(=O)[C@H](CC1CCCCC1)NC(=O)c1ccno1)C(=O)N1CCC2(CCc3ccccc32)CC1", "inactive"],
  ["CC1(C)CNc2cc(NC(=O)c3cccnc3NCc3ccncc3)ccc21", "inactive"],
  ["Nc1nc2c(ncn2COCCO)c(=O)[nH]1", "inactive"],
  ["Cn1cnc2c(F)c(Nc3ccc(Br)cc3Cl)c(C(=O)NOCCO)cc21", "0.469 µM (active)"]
]}

Can you give me Potency for all of these, one by one?
1. Cn1c(=O)c(F)c(Nc2ccc(I)cc2F)c2c(=O)n(C[C@@H](O)CO)cnc21
2. CCc1cncnc1N1CCN(Cc2nc3ccc(C(F)(F)F)cc3[nH]2)CC1
3. c1ccc(-c2nn3c(c2-c2ccnc4cc(OCCN5CCOCC5)ccc24)CCC3)nc1
4. NCCCC(N)(C(=O)O)C(F)F (stereo not given)

Output:
["1.87 µM (active)", "7.43 µM (active)", "inactive", "inactive"]

---

experiment: Quantitative High-Throughput drug screen in 47 multiple myeloma cell lines against the NCATS MIPE library collection: MM1R_ATCC cell viability assay (AID 1918981); details: MM1R multiple myeloma cells, CellTiter-Glo viability, 48 h; series mostly up to 45.8 µM; further: nearly all actives have a fitted effect of over 35% in size
Inconclusive results are not listed. The source made the active and inactive calls. Calls follow the shape of the dose curve; as a rule, active = well fitted cell-killing curve with a large enough effect; inconclusive = small, poorly fitted or top-dose-only effect, or effect the other way; inactive = no such curve, though single readings can be large or run the other way.
Return exactly one item of y = active, n = inactive

{"columns": ["Compound", "Answer Label"],
 "data": [
  ["Cn1cnc2c(F)c(Nc3ccc(Br)cc3Cl)c(C(=O)NOCCO)cc21", "y"],
  ["Cc1cnc(NC(=O)C2=C(O)c3ccccc3S(=O)(=O)N2C)s1", "n"],
  ["CCOC(=O)N[C@@H]1CC[C@@H]2[C@@H](C1)C[C@H]1C(=O)O[C@H](C)[C@H]1[C@@H]2C=Cc1ccc(-c2cccc(F)c2)cn1", "y"],
  ["CCC(C)N(C)C(=O)c1cc2ccccc2c(-c2ccccc2Cl)n1 (stereo not given)", "n"]
]}

Below: the item to evaluate.
Input: Recorded test call requested for NC(=O)c1ccc(-c2nc(-c3ccc4c(c3)OCO4)c(-c3ccccn3)[nH]2)cc1
Output: y

---

experiment: Quantitative High-Throughput drug screen in 47 multiple myeloma cell lines against the NCATS MIPE library collection: OCIMY7_PLB cell viability assay (AID 1918987); conditions: OCI-MY7 myeloma viability, CellTiter-Glo ATP, 48 h; series mostly up to 45.8 µM; further: potency means the concentration at half of the fitted maximal effect; nearly all actives have a fitted effect of over 65% in size
Inconclusive results are not listed. Activity calls are given as the source filed them. The call rests on the fitted dose curve; in most records, active means well fitted cell-killing curve with a large enough effect; inconclusive means small, poorly fitted or top-dose-only effect, or effect the other way; inactive means no such curve, though single readings can be large or run the other way.
Hi there, I'd appreciate the recorded Potency for every entry that follows.

Below, each entry is followed by its recorded Potency result.
{"columns": ["Smiles Str", "Potency"],
 "data": [
  ["CN[C@@H](C)C(=O)N[C@H]1CCCC[C@H]2CC[C@@H](C(=O)N[C@@H](c3ccccc3)c3cn(CCCCc4ccc(CCCCn5cc([C@@H](NC(=O)[C@@H]6CC[C@@H]7CCCC[C@H](NC(=O)[C@H](C)NC)C(=O)N76)c6ccccc6)nn5)cc4)nn3)N2C1=O", "1 nM (active)"],
  ["Cc1cc([C@@H](C)Nc2ccccc2C(=O)O)c2nc(N3CCOCC3)cc(=O)n2c1", "2150 nM (active)"],
  ["Cn1cnc2c(F)c(Nc3ccc(Br)cc3Cl)c(C(=O)NOCCO)cc21", "46.9 nM (active)"]
]}

Please find the next molecule below.
Summary for this molecule, CCOc1cc(C(=O)Nc2ccc(Cl)c(-c3nc4ccccc4[nH]3)c2)cc(OCC)c1OCC : Potency is 418 nM (active)
